Target: Cytochrome P450 1A2 (Homo sapiens, UniProt P05177)
Sequence (P05177 whole entry, canonical isoform): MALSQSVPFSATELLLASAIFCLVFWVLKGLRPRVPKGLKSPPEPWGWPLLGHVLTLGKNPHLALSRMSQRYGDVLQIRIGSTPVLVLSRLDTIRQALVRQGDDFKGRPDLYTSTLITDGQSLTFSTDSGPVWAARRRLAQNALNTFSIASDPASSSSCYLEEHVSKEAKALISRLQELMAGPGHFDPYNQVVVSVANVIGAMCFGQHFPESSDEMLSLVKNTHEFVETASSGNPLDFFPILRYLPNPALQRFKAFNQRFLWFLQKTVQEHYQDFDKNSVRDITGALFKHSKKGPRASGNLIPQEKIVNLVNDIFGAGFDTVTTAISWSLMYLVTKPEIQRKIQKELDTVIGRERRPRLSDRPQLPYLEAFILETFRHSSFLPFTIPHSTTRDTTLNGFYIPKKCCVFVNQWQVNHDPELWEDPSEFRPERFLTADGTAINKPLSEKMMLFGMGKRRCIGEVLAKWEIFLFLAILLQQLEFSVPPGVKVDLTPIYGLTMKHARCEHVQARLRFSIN
Assay: Interaction with human cytochrome P450 isoform 1A2 expressed in baculovirus-insect cells
experimental endpoint: pIC50
// scale note: pIC50 = -log10(conc_M); give the bare number

Task: Checklist item: pIC50 tested on Cytochrome P450 1A2 (Homo sapiens, UniProt P05177), entry CC1(C)CC(Oc2ccc(-c3ccc(C4(C(=O)O)CC4)cc3F)cc2)CC(C)(C)C1 , value?
Result: 4.59

====

Target: Cytochrome P450 2C9 (Homo sapiens)
Sequence (P11712 whole entry, canonical isoform): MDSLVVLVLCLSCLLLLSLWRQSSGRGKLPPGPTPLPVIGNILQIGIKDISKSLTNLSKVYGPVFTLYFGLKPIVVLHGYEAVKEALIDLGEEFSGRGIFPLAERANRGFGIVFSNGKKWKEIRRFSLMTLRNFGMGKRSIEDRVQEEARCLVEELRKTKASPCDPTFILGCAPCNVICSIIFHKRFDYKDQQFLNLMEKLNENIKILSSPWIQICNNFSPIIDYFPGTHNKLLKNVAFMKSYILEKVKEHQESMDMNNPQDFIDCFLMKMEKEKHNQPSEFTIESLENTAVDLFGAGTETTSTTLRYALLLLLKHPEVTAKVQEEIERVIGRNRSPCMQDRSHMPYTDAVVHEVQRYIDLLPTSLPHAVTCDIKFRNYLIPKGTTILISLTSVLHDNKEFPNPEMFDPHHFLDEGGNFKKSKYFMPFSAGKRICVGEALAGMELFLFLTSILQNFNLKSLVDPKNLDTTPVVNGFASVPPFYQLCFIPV
Test: Interaction with human cytochrome P450 isoform 2C9 expressed in baculovirus-insect cells
Format: ADME
experimental endpoint: IC50 (µM)
Give the quantity in µM, number only.

Task: Which measured IC50 value corresponds to O=C(O)C1(c2ccc(-c3ccc(-c4ccc(F)cc4)c(F)c3)c(F)c2)CC1 ?
Result: 7

Task: What about this molecule? O=C(O)C1(c2ccc(-c3ccccc3)c(F)c2)CC1
Result: 83

Task: What about this molecule? CC1(C)CC(Oc2ccc(-c3ccc(C4(C(=O)O)CC4)cc3F)cc2)CC(C)(C)C1
Result: 15

Task: What about this molecule? O=C(O)C1(c2ccc(-c3ccc(Cl)c(Cl)c3)c(F)c2)CC1
Result: 38

Task: What about this molecule? CC(C)(C(=O)O)c1ccc(-c2ccc(C3CCCCC3)cc2)c(F)c1
Result: 28

Task: What about this molecule? O=C(O)C1(c2ccc(-c3ccc(-c4ccc(O)cc4)cc3)c(F)c2)CC1
Result: 89

Task: What about this molecule? O=C(O)C1(c2ccc(-c3ccc(OC4CCC(C(F)(F)F)CC4)cc3)c(F)c2)CC1 (stereo not given)
Result: 17.7

Task: What about this molecule? CC(C(=O)O)c1ccc(-c2ccc(-c3ccc(O)cc3)cc2)c(F)c1 (stereo not given)
Result: 4.7

Task: What about this molecule? O=C(O)C1(c2ccc(-c3csc4ccccc34)c(F)c2)CC1
Result: 19

Task: What about this molecule? CC1(C)CCC(c2ccc(-c3ccc(C4(C(=O)O)CC4)cc3F)cc2)CC1
Result: 17

Source of measurements: ChEMBL document CHEMBL1141070
